Biological target: HLA-B*08:02
Experiment: IEDB peptide-MHC binding, purified MHC/direct/fluorescence; filed as Kd, often an IC50 or EC50 that approximates it; bounds were set here for any values at or beyond the usual limits of such assays
Details: source organism: Variola virus
PARAMETER: Kd

Give me measured Kd, please, for this sequence: MPAYIRNTL
1370 nM

====

Molecular target: HLA-B*27:03
Test: IEDB peptide-MHC binding, purified MHC/direct/fluorescence; filed as Kd, often an IC50 or EC50 that approximates it; bounds were set here for any values at or beyond the usual limits of such assays
Settings: source organism: Mycobacterium tuberculosis str. Haarlem
pKd: −log10 of the molar value.
PARAMETER: pKd

Give me measured pKd, please, for this sequence: RLGWRTLDF
≤ 4.70

====

Target: HLA-A*33:01
Test: IEDB peptide-MHC binding, purified MHC/competitive/radioactivity; filed as Kd, often an IC50 or EC50 that approximates it; bounds were set here for any values at or beyond the usual limits of such assays
Conditions: source organism: SARS coronavirus Tor2
Please go through the items and note down their pKd.
Give only the number. pKd is defined as minus log10 of concentration in molar units.

Give me measured pKd, please, for this sequence: TSTGNYNYK
4.91

Give me measured pKd, please, for this sequence: RLCLFDRYFK
5.71

Give me measured pKd, please, for this sequence: DFAVSKGFFK
7.30

Give me measured pKd, please, for this sequence: VLLRKNGNK
5.02

Give me measured pKd, please, for this sequence: TLNVLAWLY
5.13

Give me measured pKd, please, for this sequence: AVVYRGTTTY
4.71

Give me measured pKd, please, for this sequence: TQWSLFFFVY
5.86

Give me measured pKd, please, for this sequence: GFPFNKWGK
4.75

Give me measured pKd, please, for this sequence: SMQNCLLRLK
6.14

Give me measured pKd, please, for this sequence: FFTYLCGFIK
5.92

====

Molecular target: HLA-B*48:01
Assay: IEDB peptide-MHC binding, purified MHC/competitive/fluorescence; filed as Kd, often an IC50 or EC50 that approximates it; bounds were set here for any values at or beyond the usual limits of such assays
Conditions: source organism: Mycobacterium tuberculosis variant bovis BCG str. Pasteur 1173P2
PARAMETER: pKd
Give only the number. pKd is defined as minus log10 of concentration in molar units.

Give me measured pKd, please, for this sequence: RMVIGGVAL
7.17

====

Molecular target: HLA-B*58:01
Test: IEDB peptide-MHC binding, purified MHC/direct/fluorescence; filed as Kd, often an IC50 or EC50 that approximates it; bounds were set here for any values at or beyond the usual limits of such assays
Details: source organism: Yersinia enterocolitica
PARAMETER: Kd (nM)
Output spec: scalar in nM, unitless text.

Give me measured Kd, please, for this sequence: YIFRNTINM
508

====

Biological target: HLA-B*08:01
Assay: IEDB peptide-MHC binding, purified MHC/competitive/radioactivity; filed as Kd, often an IC50 or EC50 that approximates it; bounds were set here for any values at or beyond the usual limits of such assays
Settings: source organism: Dengue virus 3 Martinique/1243/1999
Please go through the items and note down their Kd.
Output spec: scalar in µM, unitless text.

Give me measured Kd, please, for this sequence: QKQTQRSGVL
5.8

Give me measured Kd, please, for this sequence: LRTTTVSGKL
9.54

====

Biological target: HLA-A*02:01
Experiment: IEDB peptide-MHC binding, purified MHC/direct/fluorescence; filed as Kd, often an IC50 or EC50 that approximates it; bounds were set here for any values at or beyond the usual limits of such assays
Conditions: source organism: Treponema denticola
PARAMETER: Kd (µM)
Output spec: scalar in µM, unitless text.

Give me measured Kd, please, for this sequence: RQDEVGTPF
2.01

====

Molecular target: HLA-B*40:01
Assay: IEDB peptide-MHC binding, purified MHC/competitive/radioactivity; filed as Kd, often an IC50 or EC50 that approximates it; bounds were set here for any values at or beyond the usual limits of such assays
Details: source organism: Dengue virus 1 Brazil/97-11/1997
PARAMETER: Kd (nM)
Output spec: scalar in nM, unitless text.

Give me measured Kd, please, for this sequence: EELGDGLAM
221

Give me measured Kd, please, for this sequence: SEKNETWKL
113

Give me measured Kd, please, for this sequence: LEFFLMVLLI
10100

Give me measured Kd, please, for this sequence: FEKQLGQIM
558

====

Target: HLA-C*03:03
Test: IEDB peptide-MHC binding, purified MHC/direct/fluorescence; filed as Kd, often an IC50 or EC50 that approximates it; bounds were set here for any values at or beyond the usual limits of such assays
Settings: source organism: Mycobacterium tuberculosis variant bovis BCG str. Pasteur 1173P2
PARAMETER: Kd

Enter measured Kd, system HLA-C*03:03, for the sequence shown: RLDPRLAPV
≥ 20 µM

====

Target: HLA-A*01:01
Test: IEDB peptide-MHC binding, purified MHC/direct/fluorescence; filed as Kd, often an IC50 or EC50 that approximates it; bounds were set here for any values at or beyond the usual limits of such assays
Conditions: source organism: Bacillus anthracis
pKd: −log10 of the molar value.
PARAMETER: pKd

Give me measured pKd, please, for this sequence: KLYVNGKAY
≤ 4.70

====

Please go through the items and note down their Kd.
Biological target: HLA-A*69:01
Experiment: IEDB peptide-MHC binding, purified MHC/direct/fluorescence; filed as Kd, often an IC50 or EC50 that approximates it; bounds were set here for any values at or beyond the usual limits of such assays
Details: source organism: Giardia lamblia ATCC 50803

Give me measured Kd, please, for this sequence: GMNPYHLAA
≥ 20 µM

Give me measured Kd, please, for this sequence: EIRHRSGIQ
≥ 20 µM

Give me measured Kd, please, for this sequence: IARLVYKAR
≥ 20 µM

====

Please go through the items and note down their Kd.
Biological target: HLA-A*32:01
Test: IEDB peptide-MHC binding, purified MHC/competitive/radioactivity; filed as Kd, often an IC50 or EC50 that approximates it; bounds were set here for any values at or beyond the usual limits of such assays
Details: source organism: Dengue virus 4 Philippines/H241/1956

Give me measured Kd, please, for this sequence: KTFDTEYPK
2800 nM

Give me measured Kd, please, for this sequence: SAVPTEWFPT
≥ 34000 nM

====

Target: HLA-B*27:05
Assay: IEDB peptide-MHC binding, purified MHC/direct/fluorescence; filed as Kd, often an IC50 or EC50 that approximates it; bounds were set here for any values at or beyond the usual limits of such assays
Conditions: source organism: Influenza A virus (A/tiger/Thailand/CU-T4/04(H5N1))
PARAMETER: Kd

Give me measured Kd, please, for this sequence: FVRTLFQQM
≥ 20 µM

====

Molecular target: HLA-B*46:01
Assay: IEDB peptide-MHC binding, purified MHC/direct/fluorescence; filed as Kd, often an IC50 or EC50 that approximates it; bounds were set here for any values at or beyond the usual limits of such assays
Settings: source organism: Camelpox virus CMS
pKd: −log10 of the molar value.
PARAMETER: pKd

Enter measured pKd, system HLA-B*46:01, for the sequence shown: MPAYIRNTL
≤ 4.70

====

Biological target: HLA-A*11:01
Experiment: IEDB peptide-MHC binding, purified MHC/direct/fluorescence; filed as Kd, often an IC50 or EC50 that approximates it; bounds were set here for any values at or beyond the usual limits of such assays
Conditions: source organism: Influenza A virus (A/tiger/Thailand/CU-T4/04(H5N1))
pKd: −log10 of the molar value.
PARAMETER: pKd

Give me measured pKd, please, for this sequence: FVRTLFQQM
≤ 4.70

====

Biological target: HLA-A*02:03
Test: IEDB peptide-MHC binding, purified MHC/competitive/radioactivity; filed as Kd, often an IC50 or EC50 that approximates it; bounds were set here for any values at or beyond the usual limits of such assays
Details: source organism: Dengue virus 2 Jamaica/1409/1983
PARAMETER: pKd
Give only the number. pKd is defined as minus log10 of concentration in molar units.

Give me measured pKd, please, for this sequence: LMMRTTWAL
9.33

Give me measured pKd, please, for this sequence: TIMAAILAYT
8.03

Give me measured pKd, please, for this sequence: MLLILCVTQV
7.74

====

Molecular target: HLA-A*02:06
Test: IEDB peptide-MHC binding, purified MHC/competitive/fluorescence; filed as Kd, often an IC50 or EC50 that approximates it; bounds were set here for any values at or beyond the usual limits of such assays
Settings: source organism: Brucella suis 1330
PARAMETER: Kd (nM)
Output spec: scalar in nM, unitless text.

Give me measured Kd, please, for this sequence: RQNAPFEPI
1.2

====

Target: HLA-B*35:01
Test: IEDB peptide-MHC binding, purified MHC/competitive/fluorescence; filed as Kd, often an IC50 or EC50 that approximates it; bounds were set here for any values at or beyond the usual limits of such assays
Conditions: source organism: Human immunodeficiency virus 1
PARAMETER: pKd
Give only the number. pKd is defined as minus log10 of concentration in molar units.

Give me measured pKd, please, for this sequence: RSLFNTVAVLY
6.41
